Test system: isolated guinea pig gallbladder
Assay: Functional activity in isolated guinea pig gallbladder preparation
Assay type: cell-based
Conditions: Cavia porcellus, 3 × 10^-5 M test compound; expressed as % CCK-induced maximal response; read-out: % Contraction (3 × 10^-5 M)
Lab note: compare activation at 30 µM against 90%. Equal or greater, write 1 (yes). Smaller, write 0 (no).

Look over these answered cases.
compound="CC(C)(C)N(C(=O)CN1C(=O)C(Cc2n[nH]c3ccccc23)C(=O)N(c2ccccc2)c2ccccc21)c1ccccc1 (stereo not shown)" class_name="1 (yes)"
compound="COc1ccc(N(C(=O)CN2C(=O)C(Cc3n[nH]c4ccccc34)(OC)C(=O)N(c3ccccc3)c3ccccc32)C(C)C)cc1 (stereo not shown)" class_name="0 (no)"
compound="CC(C)N(C(=O)CN1C(=O)C(Cc2n[nH]c3ccccc23)C(=O)N(c2cccnc2)c2ccccc21)c1ccccc1 (stereo not shown)" class_name="1 (yes)"

Task: Reported activation at 30 µM reaches at least 90% for COc1ccc(N(C(=O)CN2C(=O)C(Cc3nn(Cc4ccccc4)c4ccccc34)C(=O)N(c3ccccc3)c3ccccc32)C(C)C)cc1 (stereo not shown) ?
Output: 0 (no)

Task: Dear colleague, could you confirm whether CC(C)N(C(=O)CN1C(=O)C(CC(=O)Nc2cccc(C(=O)O)c2)C(=O)N(c2ccccc2)c2ccccc21)c1ccccc1 (stereo not shown) has activation at 30 µM at or above 90%?
Output: 1 (yes)

Task: Assess whether reported activation at 30 µM for COc1ccc(N(C(=O)CN2C(=O)C(C)(CC(=O)Nc3ccccc3)C(=O)N(c3cccnc3)c3ccccc32)C(C)C)cc1 (stereo not shown) sits at 90% or higher.
Output: 1 (yes)

Task: Decide: activation at 30 µM of COc1ccc(N(C(=O)CN2C(=O)C(CC(=O)O)(CC(=O)Nc3ccccc3)C(=O)N(c3ccccc3)c3ccccc32)C(C)C)cc1 (stereo not shown) >= 90%?
Output: 0 (no)

Task: I'd appreciate it if you could say whether Cc1ccc(N(C(=O)CN2C(=O)C(Cc3n[nH]c4cc(F)ccc34)C(=O)N(c3ccccc3)c3ccccc32)C(C)C)cc1 (stereo not shown) has activation at 30 µM at least equal to 90%.
Output: 0 (no)

Task: Given the entry COc1ccc(N(C(=O)CN2C(=O)C(Cc3n[nH]c4ccccc34)C(=O)N(c3cccnc3)c3cc(F)ccc32)C(C)C)cc1 (stereo not shown) , answer whether its activation at 30 µM meets or surpasses 90%.
Output: 1 (yes)

Task: Check this compound for activation at 30 µM at or above 90%: COc1ccc(N(C(=O)CN2C(=O)C(C)(Cc3n[nH]c4ccccc34)C(=O)N(c3cccnc3)c3ccccc32)C(C)C)cc1 (single isomer, unassigned) [Example 75]
Output: 0 (no)

---

Tested on: isolated guinea pig gallbladder
Test: Functional activity in isolated guinea pig gallbladder preparation
Format: cell-based
Conditions: Cavia porcellus, 3 × 10^-5 M test compound; expressed as % CCK-induced maximal response; read-out: % Contraction (3 × 10^-5 M)
Attribute: activation at 30 µM
Field format: number, assumed %, no unit text.

Example results:
compound="COc1ccc(N(C(=O)CN2C(=O)C(CC(=O)Nc3ccccc3)(OC)C(=O)N(c3ccccc3)c3ccccc32)C(C)C)cc1 (stereo not drawn)" endpoint_unit=% recorded_value=90
compound="CC(C)N(C(=O)CN1C(=O)C(Cc2n[nH]c3cc(F)ccc23)C(=O)N(c2ccccc2)c2ccccc21)c1ccccc1 (stereo not drawn)" endpoint_unit=% recorded_value=92

Here is the next item to consider.
Task: Hello, please tell me recorded activation at 30 µM for this one: COc1ccc(N(C(=O)CN2C(=O)C(Cc3n[nH]c4ccccc34)C(=O)N(c3ccccn3)c3ccccc32)C(C)C)cc1 (stereo not drawn)
Output: 91
